Biological target: CDK-2 enzyme, complexed with cyclin A (Homo sapiens)
Assay: CDK2 enzyme inhibition assay (33P phosphorylation of peptide […], filter plate)
Conditions: CDK-2/cyclin A, 0.1 mM ATP, 40 min at 30° C.
Where a name gives a salt, the structure may show the parent alone.
Threshold-based label: IC50 under 200 nM gives y, IC50 not under 200 nM gives n.

INSERT INTO measurements (compound, discrete_label) VALUES
  ('CC(C)c1cnn2c(Nc3ccc(S(=O)(=O)N4CCC(O)CC4)cc3)cc(Cl)nc12 [Example 33]', 'n'),
  ('CCN(CC)[C@H]1CC[C@H](Nc2cc(Nc3ccc(S(=O)(=O)N(C)C)cc3)n3ncc(C(C)C)c3n2)CC1 [Example 100]', 'y'),
  ('CC(C)c1cnn2c(Nc3ccc(S(=O)(=O)N(C)C)cc3)cc(N[C@H]3CCNC3)nc12 [Example 194]', 'y'),
  ('CC(C)c1cnn2c(Nc3ccc(S(C)(=O)=O)cc3)ccnc12 [Example 38]', 'n'),
  ('CS(=O)(=O)c1ccc(Nc2cc(N[C@H]3CC[C@@H](N)CC3)nc3c(Br)cnn23)cc1 [Example 164]', 'n'),
  ('CN(C)S(=O)(=O)c1ccc(Nc2cc(N[C@H]3CC[C@H](N)CC3)nc3c(C4CC4)cnn23)cc1 [Example 128]', 'y'),
  ('CC(C)c1cnn2c(Nc3ccc(S(=O)(=O)N(C)C)cc3)cc(N3CCCCC3)nc12 [Example 50]', 'n'),
  ('Cc1cccc(-c2cc(NCc3ccncc3)n3nccc3n2)c1 [Example 7]', 'n'),
  ('CC[C@H](CO)Nc1cc(Nc2ccc(S(=O)(=O)N(C)C)cc2)n2ncc(C(C)C)c2n1 [Example 83]', 'y'),
  ('CC(C)c1cnn2c(Nc3ccc(S(=O)(=O)N(C)C)cc3)cc(CO)nc12 [Example 146]', 'n'),
  ('CCc1cnn2c(Nc3ccc(S(=O)(=O)N(C)C)cc3)cc(Cl)nc12 [Example 52]', 'n'),
  ('CC1(C)CC(Nc2cc(Nc3ccc(S(=O)(=O)Nc4nccs4)cc3)n3ncc(Br)c3n2)CC(C)(C)N1 [Example 166]', 'n'),
  ('CN(C)S(=O)(=O)c1ccc(Nc2cc(Cl)nc3c(-c4ccsc4)cnn23)cc1 [Example 156]', 'n'),
  ('CN(C)S(=O)(=O)c1ccc(Nc2cc(Cl)nc3c(C4CC4)cnn23)cc1 [Example 127]', 'y'),
  ('CSc1cnn2c(Nc3ccc(Oc4cncc(Cl)c4)cc3)cc(N[C@H]3CC[C@H](N)CC3)nc12 [Example 198]', 'y'),
  ('CN1CCN(S(=O)(=O)c2ccc(Nc3cc(Cl)nc4c(Br)cnn34)cc2)CC1 [Example 139]', 'y'),
  ('CN(C)S(=O)(=O)c1ccc(Nc2cc(O[C@H]3CC[C@H](N)CC3)nc3c(Cl)cnn23)cc1 [Example 168]', 'y'),
  ('CCc1cnn2c(Nc3ccc(S(=O)(=O)Nc4nccs4)cc3)cc(Cl)nc12 [Example 151]', 'y'),
  ('CC(C)c1cnn2c(Nc3ccc(S(=O)(=O)N(C)C)cc3)cc(N3CCC[C@H]3CN)nc12 [Example 97]', 'n'),
  ('Fc1ccc(Nc2cc(-c3ccccc3)nc3ccnn23)cc1 [Example 1, hydrochloride]', 'n'),
  ('CC(C)c1cnn2c(Nc3ccc(S(=O)(=O)N(C)C)cc3)cc(NC3CCC(N)C3)nc12 (centres unmarked) [Example 150]', 'n'),
  ('CC(C)c1cnn2c(Nc3ccc(S(=O)(=O)N(C)CCO)cc3)cc(N3CCC(O)CC3)nc12 [Example 48]', 'n'),
  ('CC(C)c1cnn2c(Nc3ccc(S(=O)(=O)N(C)C)cc3)cc(NC3CCN(C)CC3)nc12 [Example 69]', 'y'),
  ('CC(C)c1cnn2c(Nc3ccc(S(C)(=O)=O)nc3)cc(N[C@H]3CC[C@H](N)CC3)nc12 [Example 107]', 'y'),
  ('CC(C)c1cnn2c(Nc3ccc(S(=O)(=O)N(C)C)cc3)cc(N3CCCC(C(=O)N(C)C)C3)nc12 (centres unmarked) [Example 92]', 'n'),
  ('CC(C)c1cnn2c(Nc3ccc(S(=O)(=O)N(C)C)cc3)cc(N[C@H]3CCCC[C@H]3N)nc12 [Example 132]', 'n'),
  ('CN(C)S(=O)(=O)c1ccc(Nc2cc(N[C@H]3CC[C@H](N)CC3)nc3c(Cl)cnn23)cc1 [Example 148]', 'y'),
  ('CN(C)S(=O)(=O)c1cccc(Nc2cc(Cl)nc3c(Br)cnn23)c1 [Example 93]', 'n'),
  ('CN(C)S(=O)(=O)c1ccc(Nc2cc(N[C@H]3CC[C@H](N)CC3)nc3c(Br)cnn23)cc1 [Example 31]', 'y'),
  ('Oc1ccc(-c2cc(Nc3ccccc3)n3nccc3n2)cc1 [Example 4]', 'n'),
  ('CC(C)c1cnn2c(Nc3ccc(S(=O)(=O)N(C)CCO)cc3)cc(N3CCCC(CO)C3)nc12 (centres unmarked) [Example 55]', 'n'),
  ('CC(C)COc1cc(Nc2ccc(S(=O)(=O)N(C)C)cc2)n2ncc(C(C)C)c2n1 [Example 40]', 'n');
